# System: NCL
# Protocol summary: Determination of NCL IC50 (loss of NCL nucleolar intensity, immunofluorescence image analysis)
# Type: cell-based
# Condition info: U2OS cells, 3 h treatment, 0.1-10 μM, fold change to control, three-parameter fit
Metric: IC50 (µM)
One number for each entry, in µM.

The cases that follow already have their IC50 on record.
| Molecule | Unit info | Numeric result |
| --- | --- | --- |
| CN1CC(NC(=O)c2cccn3c(=O)c4cc5ccccc5cc4nc23)C1 [Compound 29] | µM | 0.47 |
| CN(C)C(C)(C)CNC(=O)c1cccn2c(=O)c3cc4ccccc4cc3nc12 [Compound 31] | µM | 0.14 |
| CC(C)(N)CNC(=O)c1cccn2c(=O)c3cc4ccccc4cc3nc12 [Compound 30] | µM | 0.2 |

Attention now turns to another entry.
Quick one: IC50 for C[C@H](N)CNC(=O)c1cccn2c(=O)c3cc4ccccc4cc3nc12 [Compound 35] ?
0.17

====

# System: NCL
# Protocol summary: Determination of NCL IC50 (loss of NCL nucleolar intensity, immunofluorescence image analysis)
# Type: cell-based
# Condition info: U2OS cells, 3 h treatment, 0.1-10 μM, fold change to control, three-parameter fit
Metric: IC50

Reference set, count: 2
| Compound | Study system | Result |
| --- | --- | --- |
| C[C@@H](N)CNC(=O)c1cccn2c(=O)c3cc4ccccc4cc3nc12 | NCL | 0.81 µM |
| CCN(CC)C1CCN(C(=O)c2cccn3c(=O)c4cc5ccccc5cc4nc23)C1 (stereo not drawn) | NCL | 11 µM |

# evaluate next
Name the reported IC50 value associated with the compound CC(N)CNC(=O)c1cccn2c(=O)c3cc4ccccc4cc3nc12 (stereo not drawn)
0.1 µM
